Consider the following compounds; for each one, report its antimicrobial susceptibility, A. baumannii FSAb-039.
System: A. baumannii FSAb-039
Assay: Antimicrobial Susceptibility Test (CLSI), Test Example 2
Type: cell-based
Parameters: unit not given here
Details: Table 4; strain produces OXA-51
Experimental: Antimicrobial Susceptibility Test was performed by the CLSI (Clinical and Laboratory Standards Institute) methods. The agar dilution method for determining antimicrobial susceptibility was carried out using Mueller Hinton-II agar and the amount of inoculation was 10^4CFU/spot. Broth dilution tests were performed using the Mueller Hinton-II broth. All assays were run with the indicated control strains, available from the ATCC (American Type Culture Collection, Rockville, Md.).
Please give only the number in your answer, with no unit.

Please provide the recorded antimicrobial susceptibility, A. baumannii FSAb-039 for Cc1c(C(=O)NCCN(C)CC2=C(C(=O)O)N3C(=O)[C@H]([C@@H](C)O)[C@H]3[C@H]2C)ccc(O)c1O [Compound 4] , tested on A. baumannii FSAb-039.
8

Can you look up antimicrobial susceptibility, A. baumannii FSAb-039 on A. baumannii FSAb-039 for C[C@@H](O)[C@H]1C(=O)N2C(C(=O)O)=C(CN(C)CCNC(=O)c3ccc(O)c(O)c3F)[C@H](C)[C@H]12 [Compound 2] ?
4

# get_value(readout= antimicrobial susceptibility, A. baumannii FSAb-039, system= A. baumannii FSAb-039) for C[C@@H](O)[C@H]1C(=O)N2C(C(=O)O)=C(CN3CC[C@@H](NC(=O)c4ccc(O)c(O)c4Cl)C3)[C@H](C)[C@H]12 [Compound 29]
8

Short answer please: antimicrobial susceptibility, A. baumannii FSAb-039, A. baumannii FSAb-039, entry C[C@@H](O)[C@H]1C(=O)N2C(C(=O)O)=C(CN3CCC(C(=O)NCc4ccc(O)c(O)c4Cl)C3)[C@H](C)[C@H]12 (stereo partly drawn) [Compound 37]
32

// lookup antimicrobial susceptibility, A. baumannii FSAb-039 | system=A. baumannii FSAb-039 | key= C[C@@H](O)[C@H]1C(=O)N2C(C(=O)O)=C(CN(C)CCNC(=O)c3ccc(O)c(O)c3C(F)(F)F)[C@H](C)[C@H]12 [Compound 3]
4

For the record C[C@@H](O)[C@H]1C(=O)N2C(C(=O)O)=C(CN(C)CC(NC(=O)c3ccc(O)c(O)c3Cl)C(N)=O)[C@H](C)[C@H]12 (stereo partly drawn) [Compound 18] , what value of antimicrobial susceptibility, A. baumannii FSAb-039 is listed for A. baumannii FSAb-039?
4

Query the reported antimicrobial susceptibility, A. baumannii FSAb-039 for A. baumannii FSAb-039; item: C[C@@H](O)[C@H]1C(=O)N2C(C(=O)O)=C(CN(C)CCCNC(=O)c3ccc(O)c(O)c3Cl)[C@H](C)[C@H]12 [Compound 17]
8

Lab request: please report antimicrobial susceptibility, A. baumannii FSAb-039 under test system A. baumannii FSAb-039 for C[C@@H](O)[C@H]1C(=O)N2C(C(=O)O)=C(CN3C[C@@H](O)[C@H](NC(=O)c4ccc(O)c(O)c4Cl)C3)[C@H](C)[C@H]12 [Compound 31]
4

Write down the reported antimicrobial susceptibility, A. baumannii FSAb-039 of C[C@@H](O)[C@H]1C(=O)N2C(C(=O)O)=C(CN3CCCC3CNC(=O)c3ccc(O)c(O)c3Cl)[C@H](C)[C@H]12 (stereo partly drawn) [Compound 34] , test system: A. baumannii FSAb-039.
8

Param readout= antimicrobial susceptibility, A. baumannii FSAb-039; system= A. baumannii FSAb-039; entry= C[C@@H](O)[C@H]1C(=O)N2C(C(=O)O)=C(CN(C)CCNC(=O)c3cc(O)c(O)c(Cl)c3)[C@H](C)[C@H]12 [Compound 6] ; returns value.
4

Write down the reported antimicrobial susceptibility, A. baumannii FSAb-039 of C[C@@H](O)[C@H]1C(=O)N2C(C(=O)[O-])=C(C[N+](C)(C)CCNC(=O)c3ccc(O)c(O)c3F)[C@H](C)[C@H]12 [Compound 41] , test system: A. baumannii FSAb-039.
16

What reported antimicrobial susceptibility, A. baumannii FSAb-039 corresponds to C[C@@H](O)[C@H]1C(=O)N2C(C(=O)O)=C(CN(C)CCNC(=O)c3cc(O)c(O)c(F)c3)[C@H](C)[C@H]12 [Compound 7] on A. baumannii FSAb-039?
4

Return antimicrobial susceptibility, A. baumannii FSAb-039 measured with A. baumannii FSAb-039 given this compound: C[C@@H](O)[C@H]1C(=O)N2C(C(=O)O)=C(CN(C)CCNC(=O)c3ccc(OC(=O)C(C)(C)C)c(OC(=O)C(C)(C)C)c3Cl)[C@H](C)[C@H]12 [Compound 16]
8

Field: antimicrobial susceptibility, A. baumannii FSAb-039 (A. baumannii FSAb-039). Entry: C[C@@H](O)[C@H]1C(=O)N2C(C(=O)O)=C(CN3CC(NC(=O)c4ccc(O)c(O)c4F)[C@@H](O)C3)[C@H](C)[C@H]12 (stereo partly drawn) [Compound 36]
4

# get_value(readout= antimicrobial susceptibility, A. baumannii FSAb-039, system= A. baumannii FSAb-039) for C[C@@H](O)[C@H]1C(=O)N2C(C(=O)[O-])=C(C[N+]3(CCNC(=O)c4ccc(O)c(O)c4F)CCCC3)[C@H](C)[C@H]12 [Compound 42]
8

Test system A. baumannii FSAb-039; read-out antimicrobial susceptibility, A. baumannii FSAb-039; what value for C[C@@H](O)[C@H]1C(=O)N2C(C(=O)O)=C(CN3CC(C(=O)NCc4ccc(O)c(O)c4Cl)C3)[C@H](C)[C@H]12 [Compound 39] ?
8

What reported antimicrobial susceptibility, A. baumannii FSAb-039 corresponds to C[C@@H](O)[C@H]1C(=O)N2C(C(=O)O)=C(CN(C)CCNC(=O)c3ccc(O)c(O)c3Cl)[C@H](C)[C@H]12 [Compound 1] on A. baumannii FSAb-039?
2

Short answer please: antimicrobial susceptibility, A. baumannii FSAb-039, A. baumannii FSAb-039, entry C[C@@H](O)[C@H]1C(=O)N2C(C(=O)O)=C(CN(C)CC(=O)NCCNC(=O)c3ccc(O)c(O)c3Cl)[C@H](C)[C@H]12 [Compound 19]
8

Give recorded antimicrobial susceptibility, A. baumannii FSAb-039 with A. baumannii FSAb-039 for the following compound: C[C@@H](O)[C@H]1C(=O)N2C(C(=O)O)=C(CN(C)CC(=O)NCc3cc(=O)c(O)cn3O)[C@H](C)[C@H]12 [Compound 26]
16

Query for A. baumannii FSAb-039: what antimicrobial susceptibility, A. baumannii FSAb-039 does the record show for C[C@@H](O)[C@H]1C(=O)N2C(C(=O)O)=C(CN3CCCC3CNC(=O)c3ccc(O)c(O)c3Cl)[C@H](C)[C@H]12 (stereo partly drawn) [Compound 35] ?
8
